tested on: creatine kinase (CK) in human serum; assay: CK activity measured with enzyme solutions containing SH compounds as CK reactivator, fresh and after 1 month of storage (Example 1 / Comparative Example 1); format: biochemical; details: average of 5 samples; enzyme solution just after preparation; TG 100 mM, 2ME 26 mM, 2MES 26 mM, NAC 26 mM
Kindly supply the reported CK activity value, Average values for the records listed here.
Please reply with the bare figure in IU/l and do not write the unit itself.

## Task Fill blank: measured CK activity value, Average of the compound OCCS [2ME, 2-mercaptoethanol] is ____.
## Result 208

## Task Fill blank: measured CK activity value, Average of the compound CC(=O)N[C@@H](CS)C(=O)O [NAC, N-acetylcysteine] is ____.
## Result 204

## Task Fill blank: measured CK activity value, Average of the compound OCC(O)CS (stereo not shown) [TG, thioglycerol] is ____.
## Result 207

## Task Fill blank: measured CK activity value, Average of the compound O=S(=O)(O)CCS [2MES, 2-mercaptoethanesulfonic acid] is ____.
## Result 207

###

molecular target: creatine kinase (CK) in human serum (Homo sapiens, UniProt P06732); construct: Five fresh human serum samples were used; from tissue; host or cells: fresh human serum; assay: Inhibitory effect of oxidized products of SH compounds on CK activity (HK/G6PDH UV method, NAC 26 mM as reactivator); type: biochemical; details: Sample 5; 5 mM SH compound oxidized product, NAC 26 mM, 37° C.
Sequence (P06732 whole entry): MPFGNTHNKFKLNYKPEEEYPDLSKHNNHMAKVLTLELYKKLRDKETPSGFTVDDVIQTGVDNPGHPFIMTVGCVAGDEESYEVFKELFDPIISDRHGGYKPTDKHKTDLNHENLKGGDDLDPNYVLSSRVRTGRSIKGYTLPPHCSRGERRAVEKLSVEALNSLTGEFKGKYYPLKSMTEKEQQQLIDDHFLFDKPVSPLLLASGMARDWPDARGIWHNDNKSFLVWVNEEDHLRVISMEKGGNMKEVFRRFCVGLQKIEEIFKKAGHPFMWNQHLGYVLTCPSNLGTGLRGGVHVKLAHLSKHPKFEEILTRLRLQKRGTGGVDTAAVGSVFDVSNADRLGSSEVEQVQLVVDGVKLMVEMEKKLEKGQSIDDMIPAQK
Threshold rule: CK activity value greater than or equal to 100 IU/l. is satisfied; below that, not satisfied.

## Task Decide: is the reported value of CK activity value for OC[C@H]1O[C@@H](SS[C@@H]2O[C@H](CO)[C@@H](O)[C@H](O)[C@H]2O)[C@H](O)[C@@H](O)[C@@H]1O equal to or greater than 100 IU/l.?
## Result not satisfied

## Task Decide: is the reported value of CK activity value for c1ccc(SSc2ccccc2)cc1 equal to or greater than 100 IU/l.?
## Result not satisfied

## Task Decide: is the reported value of CK activity value for OCC(O)CSSCC(O)CO (stereo not shown) equal to or greater than 100 IU/l.?
## Result satisfied

## Task Decide: is the reported value of CK activity value for Nc1nc(SSc2nc(N)nc3c2ncn3[C@@H]2O[C@H](CO)[C@@H](O)[C@H]2O)c2ncn([C@@H]3O[C@H](CO)[C@@H](O)[C@H]3O)c2n1 equal to or greater than 100 IU/l.?
## Result not satisfied

## Task Decide: is the reported value of CK activity value for CC(=O)N[C@@H](CSSC[C@H](NC(C)=O)C(=O)O)C(=O)O equal to or greater than 100 IU/l.?
## Result not satisfied

###

Kindly supply the reported CK activity value values for the records listed here.
test system: creatine kinase (CK) in human serum; assay: CK activity measured with enzyme solutions containing SH compounds as CK reactivator, fresh and after 1 month of storage (Example 1 / Comparative Example 1); assay type: biochemical; details: Sample 5; enzyme solution just after preparation; TG 100 mM, 2ME 26 mM, 2MES 26 mM, NAC 26 mM
Please reply with the bare figure in IU/l and do not write the unit itself.

## Task Fill blank: measured CK activity value of the molecule O=S(=O)(O)CCS [2MES, 2-mercaptoethanesulfonic acid] is ____.
## Result 88

## Task Fill blank: measured CK activity value of the molecule CC(=O)N[C@@H](CS)C(=O)O [NAC, N-acetylcysteine] is ____.
## Result 87

## Task Fill blank: measured CK activity value of the molecule OCCS [2ME, 2-mercaptoethanol] is ____.
## Result 89

## Task Fill blank: measured CK activity value of the molecule OCC(O)CS (stereo not shown) [TG, thioglycerol] is ____.
## Result 88
